target: human CYP4A11 (Homo sapiens (Human)); experiment: Inhibition test against 20-HETE producing enzyme CYP4A11 (luciferine derivative, luminescence); assay type: biochemical; details: E. coli membrane fraction expressing human CYP4A11, 60 μM luciferine derivative, room temperature 60 minutes
Sequence (Q02928 5-519): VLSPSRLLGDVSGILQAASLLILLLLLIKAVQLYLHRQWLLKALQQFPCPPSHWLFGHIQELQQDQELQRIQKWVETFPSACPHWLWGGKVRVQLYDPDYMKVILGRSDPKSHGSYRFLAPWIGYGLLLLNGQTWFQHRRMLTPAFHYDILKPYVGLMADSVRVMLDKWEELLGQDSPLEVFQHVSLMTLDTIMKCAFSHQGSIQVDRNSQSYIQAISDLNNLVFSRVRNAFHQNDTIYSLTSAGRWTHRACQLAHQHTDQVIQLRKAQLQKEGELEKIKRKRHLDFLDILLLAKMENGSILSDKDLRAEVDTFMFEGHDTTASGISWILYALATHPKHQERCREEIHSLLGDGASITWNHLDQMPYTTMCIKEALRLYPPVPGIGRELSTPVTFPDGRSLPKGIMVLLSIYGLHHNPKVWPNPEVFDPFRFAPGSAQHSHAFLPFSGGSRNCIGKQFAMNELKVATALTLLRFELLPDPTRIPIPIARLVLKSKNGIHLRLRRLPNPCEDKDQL
Listing of recorded IC50 by entry.
State the answer as a number, implicitly in nM.

Example compounds with recorded IC50:
CC(C)(O)c1cc(COc2ccc(-c3ccn[nH]3)nc2)ccc1F | 79
O=S(=O)(Nc1ccc(F)cc1)c1ccc(COc2ccc(-c3ccn[nH]3)nc2)cc1 | 270
O=C(O)C1(CCCCCCOc2ccc(-c3ccn[nH]3)nc2)CCCC1 | 66
Oc1cc(F)cc(COc2ccc(-c3ccn[nH]3)nc2)c1 | 290
CC(C)(CCNS(=O)(=O)c1cccc(COc2ccc(-c3ccn[nH]3)nc2)c1)C(=O)O | 25

The compound O=C(O)CCc1ccc(CCCOc2ccc(-c3ccn[nH]3)nc2)cc1 , tested on human CYP4A11 (Homo sapiens (Human)), showed IC50 of 440

Bench note, human CYP4A11 (Homo sapiens (Human)): entry O=C(O)CCc1ccc(CCOc2ccc(-c3ccn[nH]3)nc2)cc1 , its IC50 = 210

Observed IC50 on human CYP4A11 (Homo sapiens (Human)), entry O=C(O)C1(CCCCCCOc2ccc(-c3ccn[nH]3)nc2)CCS(=O)(=O)CC1 , equals 1600

====

molecular target: human CYP4F2 (Homo sapiens (Human)); assay: Inhibition test against 20-HETE producing enzyme CYP4F2 (luciferine derivative, luminescence); format: biochemical; conditions: human CYP4F2, luciferine derivative, luminescence
Sequence (P78329 5-520): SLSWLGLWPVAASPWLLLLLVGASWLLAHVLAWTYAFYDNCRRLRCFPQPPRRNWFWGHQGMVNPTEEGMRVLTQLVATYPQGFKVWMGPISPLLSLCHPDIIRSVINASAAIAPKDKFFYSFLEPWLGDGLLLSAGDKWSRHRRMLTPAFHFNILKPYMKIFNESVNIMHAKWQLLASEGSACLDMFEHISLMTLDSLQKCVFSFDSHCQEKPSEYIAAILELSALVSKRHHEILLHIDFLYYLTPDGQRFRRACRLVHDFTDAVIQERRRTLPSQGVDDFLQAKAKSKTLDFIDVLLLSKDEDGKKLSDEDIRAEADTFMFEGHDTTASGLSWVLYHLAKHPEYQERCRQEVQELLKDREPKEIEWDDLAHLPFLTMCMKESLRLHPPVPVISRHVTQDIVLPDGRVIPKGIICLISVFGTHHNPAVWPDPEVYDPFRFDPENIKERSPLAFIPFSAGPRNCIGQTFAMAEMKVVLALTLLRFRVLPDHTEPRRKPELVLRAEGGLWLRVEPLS
Hi! Could you tag entries with IC50 below 5 µM as Yes, and those at or above as No? Much appreciated.

// below: answered molecules
CN(C(C)(C)C(=O)O)S(=O)(=O)c1cccc(COc2ccc(-c3ccn[nH]3)nc2)c1 | No
O=C(O)c1ncc2c(n1)CN(C(=O)c1cccc(COc3ccc(-c4ccn[nH]4)nc3)c1)C2 | No
O=C(O)[C@@H]1CCCN(C(=O)c2cccc(COc3ccc(-c4ccn[nH]4)nc3)c2)C1 | Yes
O=C(O)C1CCc2ccc(CCOc3ccc(-c4ccn[nH]4)nc3)cc2O1 (centres unmarked) | Yes
CC(C)(NS(=O)(=O)c1cccc(COc2ccc(-c3ccn[nH]3)nc2)c1)C(=O)O | No

Query :: For O=C(O)C1CC(c2ccc(CCOc3ccc(-c4ccn[nH]4)nc3)cc2)C1 (centres unmarked) , is the recorded IC50 below the cut-off of 5 µM?
Result :: Yes

Query :: Here's an entry: CS(=O)(=O)NC(=O)c1cccc(COc2ccc(-c3ccn[nH]3)nc2)c1 . Is its IC50 below 5 µM?
Result :: No

Query :: In the record for O=C(O)C1CC1c1ccc(F)c(CCOc2ccc(-c3ccn[nH]3)nc2)c1 (single isomer, unassigned) [Example 74-7] , is IC50 less than 5 µM?
Result :: Yes

====

Each entry below lists one item and its recorded IC50 value.
target: human CYP4A11 (Homo sapiens (Human)); assay: Inhibition test against 20-HETE producing enzyme CYP4A11 (luciferine derivative, luminescence); assay type: biochemical; conditions: E. coli membrane fraction expressing human CYP4A11, 60 μM luciferine derivative, room temperature 60 minutes
Give a bare numeral; the unit µM is implied.

Field: example entries. Status: answers known.
O=C(O)C1CC1c1cccc(COc2ccc(-c3ccn[nH]3)nc2)c1 (single isomer, unassigned) [Example 26-2] | 0.023
O=C(O)CCc1cccc(COc2cnc(-c3ccn[nH]3)c(F)c2)c1 [Example 38-1] | 0.02
CNC(=O)CCc1cccc(COc2ccc(-c3ccn[nH]3)nc2)c1 [Example 42-8] | 0.12
O=C(O)C1CCc2cc(COc3ccc(-c4ccn[nH]4)nc3)ccc2O1 (stereo not drawn) [Example 1-69] | 0.075
CC(C)(OCCCCCCCOc1ccc(-c2ccn[nH]2)nc1)C(=O)O [Example 15-1] | 0.12

The molecule listed as O=C(O)C1CCN(c2cccc(COc3ccc(-c4ccn[nH]4)nc3)c2)CC1 [Example 34-1] shows IC50 equal to 0.042

Record O=C(O)Cn1cc(CCCCOc2ccc(-c3ccn[nH]3)nc2)cn1 [Example 8-12] . Reported IC50: 0.1

The measured IC50 associated with O=C(O)Cn1cc(CCCCOc2ccc(-c3ccn[nH]3)nc2)nn1 [Example 35-2] reads 0.36

Data point: CC(C)(CCOc1ccc(-c2ccn[nH]2)nc1)CCC(=O)O [Example 7-1] ; IC50 = 0.034

Please fill in: IC50 reported for O=C(O)c1cc(COc2ccc(-c3ccn[nH]3)nc2)ccn1 [Example 1-40] = 0.58

IC50 for O=C(O)CCNC(=O)c1cc(COc2ccc(-c3ccn[nH]3)nc2)ccn1 [Example 49-1] is 1.2

molecule O=C(O)c1cccc(CCCOc2ccc(-c3ccn[nH]3)nc2)c1 [Example 1-9] , IC50 observed: 0.079

====

biological target: 20-HETE producing enzymes, human kidney microsome; test: Inhibition test against 20-HETE producing enzymes using human kidney microsomes (LC-MS/MS); details: human kidney microsome 250 μg/mL protein, 20 μM arachidonic acid, 37° C. 45 minutes, LC-MS/MS
The entries below are paired with their reported pIC50.
pIC50 field: float, defined as -log10 of concentration (mol/L).

Reference set, count: 2
O=C(O)C1CC1c1ccc(CCOc2ccc(-c3ccn[nH]3)nc2)c(F)c1 (single isomer, unassigned) | 8.22
O=C(O)C1(CCCCCCCCOc2ccc(-c3ccn[nH]3)nc2)CCOCC1 | 8.00

Input O=C(O)[C@H]1C[C@@H]1c1cccc(CCOc2ccc(-c3ccn[nH]3)nc2)c1F . Output pIC50: 8.36

Kindly note the recorded pIC50 for O=C(O)C1COc2ccc(COc3ccc(-c4ccn[nH]4)nc3)cc2C1 (stereo not shown) , which is 7.59

The value of pIC50 measured for the compound O=C(O)C1CC1c1cccc(COc2ccc(-c3ccn[nH]3)nc2)c1F (single isomer, unassigned) turned out to be 7.92

# pIC50 of O=C(O)c1ccc2c(c1)CC(COc1ccc(-c3ccn[nH]3)nc1)CC2 (stereo not shown) = 8.09

Looking up O=C(O)C1(OCCCCCCCCOc2ccc(-c3ccn[nH]3)nc2)CCOCC1 , I see its pIC50 listed as 8.16

The reported value for O=C(O)[C@@H]1C[C@H]1c1cccc(CCOc2ccc(-c3ccn[nH]3)nc2)c1F in terms of pIC50 is 8.04

The recorded pIC50 for entry O=C(O)C1(OCCCCCCCOc2ccc(-c3ccn[nH]3)nc2)COC1 equals 7.96

Entry under test: O=C(O)[C@@H]1C[C@@H]1c1ccc(CCOc2ccc(-c3ccn[nH]3)nc2)cc1 . Its pIC50 was 8.19

pIC50 reported for this compound O=C(O)C1CC1c1cccc(CCOc2ccc(-c3ccn[nH]3)nc2)c1 (stereo not shown) : 7.80

Data point: O=C(O)C1CC1c1cc(CCOc2ccc(-c3ccn[nH]3)nc2)ccc1F (stereo not shown) ; pIC50 = 7.70

====

target: human CYP4A11 (Homo sapiens (Human)); assay: Inhibition test against 20-HETE producing enzyme CYP4A11 (luciferine derivative, luminescence); assay type: biochemical; details: E. coli membrane fraction expressing human CYP4A11, 60 μM luciferine derivative, room temperature 60 minutes
Attribute: IC50
Write the value in nM as a bare number.

These recorded examples may help you get a feel for the data.
CN(C)C(=O)CCc1cccc(COc2ccc(-c3ccn[nH]3)nc2)c1 | 67
CC(C)(C(=O)O)c1cccc(CCCOc2ccc(-c3ccn[nH]3)nc2)c1 | 22
O=C(O)c1cnn(CCCCOc2ccc(-c3ccn[nH]3)nc2)c1 | 130
CC(C)S(=O)(=O)Nc1cccc(COc2ccc(-c3ccn[nH]3)nc2)c1 | 140
CN(CC12CC(COc3ccc(-c4ccn[nH]4)nc3)(C1)C2)S(C)(=O)=O | 240

molecule O=C(O)c1ccccc1-c1cccc(COc2ccc(-c3ccn[nH]3)nc2)c1 , IC50 observed: 250

Briefly, IC50 measured for O=C(CCc1cccc(COc2ccc(-c3ccn[nH]3)nc2)c1)N1CCCC1 : 150

# IC50 (molecule: O=C(O)C1CC1c1cccc(COc2ccc(-c3ccn[nH]3)nc2)c1 (single isomer, unassigned) [Example 26-3] ) is 24

For this molecule ( CS(=O)(=O)NCCCCCCOc1ccc(-c2ccn[nH]2)nc1 ), measured IC50 is 1700

The recorded IC50 for CN(CCCCCCOc1ccc(-c2ccn[nH]2)nc1)C(=O)C1(C(=O)O)CCCC1 is 92

What the record says about O=C(O)CCc1ccccc1COc1ccc(-c2ccn[nH]2)nc1 : IC50 is 110

Short answer for CC(C)(Oc1cccc(CCCCOc2ccc(-c3ccn[nH]3)nc2)c1)C(=O)O : IC50 was 110

// sample CCCNC(=O)c1cccc(COc2ccc(-c3ccn[nH]3)nc2)c1 , its IC50 was 110

Note to self: IC50 recorded for CS(=O)(=O)NC(=O)NCCCCOc1ccc(-c2ccn[nH]2)nc1 was 72

Lab book: IC50 of O=S(=O)(CCO)c1cccc(COc2ccc(-c3ccn[nH]3)nc2)c1 noted as 55

response.value for O=C(O)c1cncc(-c2cccc(COc3ccc(-c4ccn[nH]4)nc3)c2)c1 (field: IC50) = 12

IC50 measured on CS(=O)(=O)NC(=O)CCCCCOc1ccc(-c2ccn[nH]2)nc1 = 70

Data point: O=C(O)C12CCC(COc3cnc(-c4ccn[nH]4)c(F)c3)(CC1)CC2 ; IC50 = 29
